Taken from patent US4236008A.

Tested on: characteristic stretching or writhing syndrome induced by phenylquinone
Experiment: standard phenylquinone writhing test (PQW), analgesic activity, oral
Details: Mus musculus, read-out: MOUSE ED50 VALUES: PQW
Where a name gives a salt, the structure may show the parent alone.
Lab note: cut-off is 20 mg/kg. Strictly less in ED50 is True. Exactly 20 mg/kg or more is False.

COMPOUND	LABEL
COc1ccc2c3c1O[C@H]1C(F)(F)CC[C@H]4[C@@H](C2)N(C)CC[C@@]341 [Compound 4, Hydrochloride]	True
COc1ccc2c3c1OC1C(F)C=CC4C(C2)N(C)CCC341 (stereo not shown) [Ayer 3,137,701, reference compound]	False
COc1ccc2c3c1O[C@H]1C(F)(F)CC[C@@]4(F)[C@@H](C2)N(CC2CCC2)CC[C@]314.Cl	False
COc1ccc2c3c1O[C@H]1C(F)=CC[C@H]4[C@@H](C2)N(C)CC[C@]314 [Compound 2, Hydrochloride]	True
COc1ccc2c3c1O[C@H]1C(F)(F)CC[C@@]4(O)[C@@H](C2)N(CC2CCC2)CC[C@]314.Cl	False
COc1ccc2c3c1O[C@H]1C(F)=CC[C@H]4[C@@H](C2)N(CC2CC2)CC[C@]314	True
COc1ccc2c3c1O[C@H]1C(F)(F)CC[C@@]4(F)[C@@H](C2)N(CC2CC2)CC[C@]314	False

====

Reported ED50 values follow for various molecules
Tested on: characteristic stretching or writhing syndrome induced by phenylquinone
Assay: standard phenylquinone writhing test (PQW), analgesic activity, oral
Conditions: Mus musculus, 0.5 h, read-out: MOUSE ED50 VALUES: PQW (peak time value)
Structures can show the parent of a compound that is named as a salt.
OBSERVABLE: ED50 (mg/kg)

MOLECULE	UNIT DESCRIPTOR	DATA VALUE
COc1ccc2c3c1O[C@H]1C(F)(F)CC[C@H]4[C@@H](C2)N(CC2CC2)CC[C@@]341	mg/kg	2.2
COc1ccc2c3c1O[C@H]1[C@@H](O)C=C[C@H]4[C@@H](C2)N(C)CC[C@@]341 [Codeine PO4, reference compound]	mg/kg	4.7
CN1CC[C@]23c4c5ccc(O)c4O[C@H]2[C@@H](O)C=C[C@H]3[C@H]1C5 [Morphine SO4, reference compound]	mg/kg	3
COc1ccc2c3c1O[C@H]1C(F)(F)CC[C@H]4[C@@H](C2)N(CC2CCC2)CC[C@@]341 [Compound 9, Hydrochloride]	mg/kg	2.9

====

Experiment: in vivo
Settings: mouse, sc, 135 mg/kg
Structures can show the parent of a compound that is named as a salt.

MOLECULE	ED50
COc1ccc2c3c1O[C@H]1C(F)(F)CC[C@H]4[C@@H](C2)N(C)CC[C@@]341 [Compound 4, Hydrochloride]	10 mg/kg
COc1ccc2c3c1O[C@H]1C(F)(F)CC[C@@]4(F)[C@@H](C2)N(CC2CC2)CC[C@]314	> 135 mg/kg
COc1ccc2c3c1O[C@H]1C(F)(F)CC[C@H]4[C@@H](C2)N(CC2CC2)CC[C@@]341	> 54 mg/kg
COc1ccc2c3c1O[C@H]1C(F)(F)CC[C@H]4[C@@H](C2)N(CC2CCC2)CC[C@@]341 [Compound 9, Hydrochloride]	> 135 mg/kg
COc1ccc2c3c1O[C@H]1C(F)=CC[C@H]4[C@@H](C2)N(C)CC[C@]314 [Compound 2, Hydrochloride]	26 mg/kg
COc1ccc2c3c1O[C@H]1C(F)(F)CC[C@@]4(F)[C@@H](C2)N(CC2CCC2)CC[C@]314.Cl	> 135 mg/kg
COc1ccc2c3c1O[C@H]1C(F)=CC[C@H]4[C@@H](C2)N(CC2CC2)CC[C@]314	> 135 mg/kg
